ASSAYED_SYSTEM: UniProtKB Q9BQF6
Sequence (Q9BQF6 whole entry): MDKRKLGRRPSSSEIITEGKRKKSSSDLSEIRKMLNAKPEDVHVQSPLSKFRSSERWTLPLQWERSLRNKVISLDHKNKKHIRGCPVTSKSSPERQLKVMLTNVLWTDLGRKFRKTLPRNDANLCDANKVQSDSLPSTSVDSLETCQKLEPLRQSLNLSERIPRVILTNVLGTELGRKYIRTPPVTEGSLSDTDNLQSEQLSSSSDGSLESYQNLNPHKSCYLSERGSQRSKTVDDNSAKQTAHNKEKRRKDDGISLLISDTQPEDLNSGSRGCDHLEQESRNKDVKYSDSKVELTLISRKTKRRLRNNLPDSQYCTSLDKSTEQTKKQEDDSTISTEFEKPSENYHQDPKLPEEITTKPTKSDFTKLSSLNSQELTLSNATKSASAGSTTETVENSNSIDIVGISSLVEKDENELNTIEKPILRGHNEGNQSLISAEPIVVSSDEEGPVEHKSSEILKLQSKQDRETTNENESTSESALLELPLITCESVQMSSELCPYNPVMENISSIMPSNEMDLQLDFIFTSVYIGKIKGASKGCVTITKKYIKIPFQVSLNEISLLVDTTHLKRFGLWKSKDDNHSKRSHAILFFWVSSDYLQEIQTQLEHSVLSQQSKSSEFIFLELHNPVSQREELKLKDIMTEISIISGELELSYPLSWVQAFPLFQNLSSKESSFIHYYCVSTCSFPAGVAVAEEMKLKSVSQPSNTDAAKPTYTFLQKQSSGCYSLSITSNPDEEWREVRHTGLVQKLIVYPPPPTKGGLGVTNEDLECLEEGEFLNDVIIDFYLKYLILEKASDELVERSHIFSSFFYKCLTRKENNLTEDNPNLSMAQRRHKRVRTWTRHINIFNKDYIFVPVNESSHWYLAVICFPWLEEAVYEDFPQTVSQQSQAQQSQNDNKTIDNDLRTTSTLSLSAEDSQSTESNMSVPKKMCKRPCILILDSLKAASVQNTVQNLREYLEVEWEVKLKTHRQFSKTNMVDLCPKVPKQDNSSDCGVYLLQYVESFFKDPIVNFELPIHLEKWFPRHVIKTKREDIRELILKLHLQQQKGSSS
Type: functional
The source made the active and inactive calls.
RESULT_TYPE: IC50

Sample answers from the record:
Cc1ccc2nc(-c3cccnc3SCC(=O)N3c4ccccc4CC3C)[nH]c2c1 (stereo unspecified)
2.9 µM (active)
Fc1ccccc1COc1ccc(C(=S)N2CCCC2)cc1
10.9 µM (active)
COc1cccc(-c2nnc(-c3ccccc3[N+](=O)[O-])o2)c1
10.4 µM (active)
O=C(COC(=O)c1ccc([N+](=O)[O-])s1)Nc1ccc(F)cc1
6.29 µM (active)
Cc1ccc(/C=N/OC(=O)c2nn(C)cc2Cl)cc1
13 µM (active)

Now, please, on to the next molecule.
INPUT: So what does the record say about IC50 for O=C(Nc1ccc2c(c1)CCC2)c1ccc(Br)s1 ?
OUTPUT: 3.4 µM (active)
